- Tested on: c-Abl (mouse)
- Assay comment: phosphorylation enrichment, bacterial display (enrichment ratio); higher = better substrate or ligand; peptides without Tyr show the background;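 note: 11-residue human phosphosite peptides and single-mutation variants displayed on the E. coli surface, counted by deep sequencing, each peptide's frequency after selection divided by its frequency in the unselected input library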;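 note: frequency after pTyr selection over input frequency; kinase dosed for 20-30% of maximal phosphorylation in three min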
Property: phosphorylation enrichment
# answer = number (no unit)

For orientation, consider the following solved cases.
INSERT INTO assay_data (residue_codes, property, recorded_value) VALUES
  ('PPAPRYHHSAV [LZTR1_Y119]', 'phosphorylation enrichment', 0.677),
  ('SNVEQYQAMVT [TPR_Y965]', 'phosphorylation enrichment', 0.487),
  ('VPDTNYTSDEE [STK33_Y439_A437T]', 'phosphorylation enrichment', 0.748),
  ('CDIARYIVSQL [MAST2_Y461_P459A]', 'phosphorylation enrichment', 0.667),
  ('ADKSAYLMGLN [MYH7_Y386]', 'phosphorylation enrichment', 0.467);

Consider the additional sequence presented here.
-- ask Return the recorded phosphorylation enrichment value; entry: CEHRGFLYLAI [TEK_Y897_Y897F]
-- reply 0.947

* * *

- Target system: EPHB2 (UniProt P29323)
- Sequence (P29323 whole entry, looked up): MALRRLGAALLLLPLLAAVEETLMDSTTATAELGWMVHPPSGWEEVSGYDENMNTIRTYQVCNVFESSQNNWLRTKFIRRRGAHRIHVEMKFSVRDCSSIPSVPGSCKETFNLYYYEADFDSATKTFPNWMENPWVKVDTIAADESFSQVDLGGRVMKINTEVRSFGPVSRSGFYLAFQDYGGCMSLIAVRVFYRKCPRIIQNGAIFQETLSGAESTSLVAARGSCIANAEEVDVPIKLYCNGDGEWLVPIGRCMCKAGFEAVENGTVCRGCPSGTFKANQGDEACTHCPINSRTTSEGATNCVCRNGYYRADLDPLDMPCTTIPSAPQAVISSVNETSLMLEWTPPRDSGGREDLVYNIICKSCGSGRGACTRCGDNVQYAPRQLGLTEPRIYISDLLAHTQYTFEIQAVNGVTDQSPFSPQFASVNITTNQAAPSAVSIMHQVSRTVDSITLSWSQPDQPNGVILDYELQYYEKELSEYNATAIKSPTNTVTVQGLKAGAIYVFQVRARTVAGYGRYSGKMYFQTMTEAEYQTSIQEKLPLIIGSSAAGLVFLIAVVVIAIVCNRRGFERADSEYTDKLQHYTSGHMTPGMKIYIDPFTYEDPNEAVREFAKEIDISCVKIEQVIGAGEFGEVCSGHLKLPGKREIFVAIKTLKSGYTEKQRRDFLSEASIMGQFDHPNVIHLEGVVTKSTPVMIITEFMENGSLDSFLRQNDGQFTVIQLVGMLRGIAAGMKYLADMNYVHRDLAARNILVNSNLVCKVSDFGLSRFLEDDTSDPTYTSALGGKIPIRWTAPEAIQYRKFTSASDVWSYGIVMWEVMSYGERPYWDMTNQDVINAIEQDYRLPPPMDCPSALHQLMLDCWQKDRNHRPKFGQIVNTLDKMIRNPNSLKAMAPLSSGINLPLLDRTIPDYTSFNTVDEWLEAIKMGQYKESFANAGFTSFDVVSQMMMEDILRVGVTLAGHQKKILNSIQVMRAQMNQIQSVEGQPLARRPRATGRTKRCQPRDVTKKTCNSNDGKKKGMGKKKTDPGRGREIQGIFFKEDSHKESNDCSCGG
- Assay comment: phosphorylation enrichment, bacterial display (enrichment ratio); higher = better substrate or ligand; peptides without Tyr show the background
# key: entry, value: phosphorylation enrichment

INSERT INTO assay_data (residue_codes, recorded_value) VALUES
  ('EWQQTYTFDSG [JUP_Y20_YF]', 0.485),
  ('KKHFSYAWPFF [BRDT_Y291_YF]', 0.494),
  ('KSLSQYLEMDK [CAGE1_Y438_V435L]', 0.483),
  ('AEQDCYHGAIP [FER_Y461_W460C]', 0.655),
  ('EQFELHCEMGS [CBL_Y371_Y371H_YF]', 0.623);

-- ask Specify measured phosphorylation enrichment for GRRNTCFASIA [ACADM_Y352_Y352C_YF] .
-- reply 0.348

-- ask Identify the reported phosphorylation enrichment for the following entry. RLCQDYDIIGP [ANK1_Y1073_T1075I]
-- reply 12.7

-- ask Report phosphorylation enrichment, nothing else, for this sequence: GRVYVYRLSEQ [ITGAE_Y551]
-- reply 0.471

-- ask Provide phosphorylation enrichment value for the following sequence: CEHRGFLYLAI [TEK_Y897_Y897F]
-- reply 0.466

-- ask Consider the sequence MAPQMYEFHLP [NCAPD2_Y6] . State its measured phosphorylation enrichment.
-- reply 3.16

-- ask Given QEALEYFMKQI [PIK3CA_Y1038_M1043I] , respond with its phosphorylation enrichment.
-- reply 0.547

-- ask Please report phosphorylation enrichment for the following sequence: ARVDTYCRHNF [HLA-DRB1_Y107_A103R_YF]
-- reply 0.494

-- ask Consider the sequence SRVTQYERDFE [SNX1_Y463] and give its recorded phosphorylation enrichment.
-- reply 0.486

-- ask Report phosphorylation enrichment for YEKFLYFLPAS [DYNC2H1_Y346_H341Y]
-- reply 0.644

-- ask Assign phosphorylation enrichment to the following record: RVKTPYSLKRW [BMPR2_Y979]
-- reply 0.516

-- ask Read the entry ADLTEYLSTHY [UQCRC1_Y219] and write its reported phosphorylation enrichment.
-- reply 0.622

-- ask Answer with the recorded phosphorylation enrichment for the sequence listed here: GNHISYFQSDG [CACNA1C_Y1757_V1755I_YF]
-- reply 0.44

-- ask Return phosphorylation enrichment for the following sequence: CCKNRYDKDKP [THAP1_Y14_G9C]
-- reply 0.28

-- ask Please report the measured phosphorylation enrichment for LLSVAYKNVVR [YWHAZ_Y48_G53R]
-- reply 0.88

-- ask Determine from records and report phosphorylation enrichment for GHMYAYDWISI [BEST1_Y227_L224M]
-- reply 2.54

-- ask Give recorded phosphorylation enrichment. NTGLDYIKFTW [HRH1_Y386]
-- reply 0.742

* * *

- Target system: Hck (UniProt P08631)
- Sequence (P08631 whole entry, looked up): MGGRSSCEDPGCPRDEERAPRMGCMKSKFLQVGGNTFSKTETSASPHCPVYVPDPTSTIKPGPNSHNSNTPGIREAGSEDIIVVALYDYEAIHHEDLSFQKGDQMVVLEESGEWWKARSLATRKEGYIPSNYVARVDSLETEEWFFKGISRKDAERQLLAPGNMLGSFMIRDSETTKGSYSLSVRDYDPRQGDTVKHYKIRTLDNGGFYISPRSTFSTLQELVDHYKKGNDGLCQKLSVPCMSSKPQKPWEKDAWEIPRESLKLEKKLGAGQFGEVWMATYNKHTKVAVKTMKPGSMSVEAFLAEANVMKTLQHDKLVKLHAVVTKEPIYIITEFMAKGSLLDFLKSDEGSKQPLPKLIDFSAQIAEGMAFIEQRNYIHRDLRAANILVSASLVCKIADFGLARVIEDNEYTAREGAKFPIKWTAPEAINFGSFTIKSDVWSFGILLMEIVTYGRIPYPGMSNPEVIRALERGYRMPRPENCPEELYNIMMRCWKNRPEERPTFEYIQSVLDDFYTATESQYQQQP
- Assay comment: phosphorylation enrichment, bacterial display (enrichment ratio); higher = better substrate or ligand; peptides without Tyr show the background
Property: phosphorylation enrichment
The reply should be a number, written without any unit.

// solved cases for phosphorylation enrichment follow
INSERT INTO measurements (residue_codes, recorded_value) VALUES
  ('TLGPFYPSLLF [CRYAA_Y18_R21L]', 0.51),
  ('KYRREYILSLE [GPC3_Y299_W296R]', 0.49),
  ('PSSNLYFRWLT [CNGA3_Y168_YF]', 1.38),
  ('FHKALYTVRSF [PDE6C_Y266_YF]', 0.557),
  ('QGFDTYFGYLL [ARSB_Y165_R160Q]', 8.44),
  ('NIKKEYAKMVQ [PMS2_Y181]', 0.451),
  ('ISRDVYSTDYY [NTRK2_Y702_M697I]', 1.95),
  ('FISVGYVDGTQ [HLA-B_Y51_D54G]', 0.375),
  ('KTVQDYLKKFF [MMP8_Y36_E38K_YF]', 0.494),
  ('SSSPTYPDLPF [GLI3_Y168]', 0.59);

-- ask Supply phosphorylation enrichment value. Item: GRPMDYHVSIT [OTOF_Y254_Q255H]
-- reply 0.479

-- ask Give a short answer stating reported phosphorylation enrichment for SNVEQYQAMVT [TPR_Y965] .
-- reply 0.424

-- ask Please supply the value of reported phosphorylation enrichment for the item SDGHEYIYVDP [PDGFRB_Y579]
-- reply 1.2

-- ask Determine its reported phosphorylation enrichment: VHNLDYFKQTT [FGFR3_Y647_K650Q_YF]
-- reply 0.525

-- ask Answer with the recorded phosphorylation enrichment for the sequence listed here: ILKPDYQPLAV [HYDIN_Y1072_I1077V]
-- reply 0.456

-- ask Supply reported phosphorylation enrichment belonging to this sequence: RLEGVYRNNID [PTEN_Y46]
-- reply 0.389

-- ask Consider the sequence FSNVLYRPRGA [TMIGD2_Y197_YF] . State its measured phosphorylation enrichment.
-- reply 0.41

-- ask Read the entry `KPGVNYYFRVS` and write its reported phosphorylation enrichment.
-- reply 0.423

-- ask Specify phosphorylation enrichment for SIIKDYFHRGT [GATM_Y203_A208T] and stop.
-- reply 0.463

-- ask Entry RRESQYQENRG [LRCH3_Y354] needs its phosphorylation enrichment filled in; supply it.
-- reply 0.503

* * *

- Tested on: c-Abl (mouse)
- Assay comment: phosphorylation enrichment, bacterial display (enrichment ratio); higher = better substrate or ligand; peptides without Tyr show the background
Property: phosphorylation enrichment
Just the number.

Consider the following illustrative entries.
INSERT INTO results (residue_codes, recorded_value) VALUES
  ('DYTEAYNPKIK [CLK1_Y305]', 0.678),
  ('YMRGMYFRMKD [PLA2G6_Y541]', 0.657),
  ('ASTHVYQIMNH [ITK_Y588]', 0.623),
  ('FRDALYKSMVD [PHEX_Y250_F252S_YF]', 0.643),
  ('SLDLSYFHTSS [EMD_Y181_P183H_YF]', 0.645),
  ('GNHISYFQSDG [CACNA1C_Y1757_V1755I_YF]', 0.511);

-- ask Fill in reported phosphorylation enrichment for this entry: AKQVGYENAGT [PC_Y304]
-- reply 0.447

-- ask Given the sequence PIPAAYNKFDQ [CDC73_Y290_R292K_YF] , write its reported phosphorylation enrichment.
-- reply 0.684

* * *

- Target system: Hck (UniProt P08631)
- Assay comment: phosphorylation enrichment, bacterial display (enrichment ratio); higher = better substrate or ligand; peptides without Tyr show the background
phosphorylation enrichment values by entry
Lab note: record the figure alone, no unit after it.

-- ask In one line, give reported phosphorylation enrichment of the entry FRPPYYHRDCM [HGD_Y334_N337D] .
-- reply 0.415

-- ask Give me measured phosphorylation enrichment, please, for this sequence: DVRQEYSGMIL [PLXND1_Y616_P617S]
-- reply 0.498

-- ask Using known records, supply phosphorylation enrichment for IVAREYYSEAD [CAMK2A_Y106]
-- reply 0.557

-- ask # return recorded phosphorylation enrichment for input SLTRLCVGENA [NLRP3_Y861_Y861C]
-- reply 0.534

-- ask Name the recorded phosphorylation enrichment of the sequence listed here: IRSGIYFKPES [L2HGDH_Y102_H98R_YF]
-- reply 0.786

-- ask Please indicate phosphorylation enrichment recorded for KELAPYDENCF [RPS19_Y48_W52C]
-- reply 0.57

-- ask Look up phosphorylation enrichment of RFVFFYSFLLK [PTEN_Y178_YF] and report it.
-- reply 0.509

-- ask Quick one: give measured phosphorylation enrichment for LVSCAYQVARG [FGFR1_Y605]
-- reply 0.609

* * *

- Target system: FGFR1 (UniProt P11362)
- Sequence (P11362 whole entry, looked up): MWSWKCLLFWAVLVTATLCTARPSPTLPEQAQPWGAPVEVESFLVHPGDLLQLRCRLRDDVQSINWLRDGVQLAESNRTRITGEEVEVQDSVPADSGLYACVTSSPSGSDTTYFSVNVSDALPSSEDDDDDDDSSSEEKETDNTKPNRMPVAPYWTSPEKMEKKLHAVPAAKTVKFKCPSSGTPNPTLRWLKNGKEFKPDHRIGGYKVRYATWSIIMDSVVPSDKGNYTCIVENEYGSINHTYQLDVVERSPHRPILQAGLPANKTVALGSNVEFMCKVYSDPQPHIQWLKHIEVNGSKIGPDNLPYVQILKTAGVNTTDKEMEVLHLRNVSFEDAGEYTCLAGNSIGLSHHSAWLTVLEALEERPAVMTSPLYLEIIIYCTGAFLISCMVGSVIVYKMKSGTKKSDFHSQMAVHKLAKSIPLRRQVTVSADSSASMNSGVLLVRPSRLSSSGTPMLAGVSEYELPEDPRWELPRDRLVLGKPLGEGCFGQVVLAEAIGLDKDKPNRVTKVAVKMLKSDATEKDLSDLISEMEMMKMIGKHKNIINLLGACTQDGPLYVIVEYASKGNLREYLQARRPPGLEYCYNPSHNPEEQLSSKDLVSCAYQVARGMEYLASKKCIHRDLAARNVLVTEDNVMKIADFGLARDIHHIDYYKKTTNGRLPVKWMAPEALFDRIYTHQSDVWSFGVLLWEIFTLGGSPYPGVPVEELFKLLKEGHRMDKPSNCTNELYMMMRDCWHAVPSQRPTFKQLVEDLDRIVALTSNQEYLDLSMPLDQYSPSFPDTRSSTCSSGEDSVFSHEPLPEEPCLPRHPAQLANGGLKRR
- Assay comment: phosphorylation enrichment, bacterial display (enrichment ratio); higher = better substrate or ligand; peptides without Tyr show the background
Each entry below carries its reported phosphorylation enrichment.

INSERT INTO measurements (residue_codes, property, recorded_value) VALUES
  ('AGREEYSAMRD [KRAS_Y64_Q61R]', 'phosphorylation enrichment', 0.472),
  ('GIVEDYRPPVY [ACVRL1_Y421_F425V]', 'phosphorylation enrichment', 0.458),
  ('RTCSSYTIEKI [PARP15_Y520_A521T]', 'phosphorylation enrichment', 0.475),
  ('EQMASYFGHSV [ITGA2B_Y319]', 'phosphorylation enrichment', 0.576),
  ('TLLAFYMGNFS [GLB1_Y552_P549L]', 'phosphorylation enrichment', 0.435);

-- ask Identify measured phosphorylation enrichment obtained with FGFR1 (UniProt P11362) for HFVFFYSFLLK [PTEN_Y178_R173H_YF] .
-- reply 0.682

-- ask Provide the reported phosphorylation enrichment (system: FGFR1 (UniProt P11362)) for LDAGEYCVPRG [BEX1_Y43]
-- reply 1.32

-- ask System FGFR1 (UniProt P11362). Read-out phosphorylation enrichment. Item HDRNTYEKYLG [TF_Y666] . Report value.
-- reply 0.676

-- ask With FGFR1 (UniProt P11362) as the test system, provide measured phosphorylation enrichment for this sequence: AAAAMYTFLPD [MYORG_Y36]
-- reply 13.5

-- ask Fill: phosphorylation enrichment (FGFR1 (UniProt P11362)) for this sequence RFLRGYEQDAY [HLA-A_Y137_R138E]
-- reply 0.6

-- ask // fetch phosphorylation enrichment; item: RSFPSYYTSHV [NEFL_Y442] ; system: FGFR1 (UniProt P11362)
-- reply 2.19

-- ask Give phosphorylation enrichment; test system FGFR1 (UniProt P11362); sequence EMFNPCYGLFE [NEDD4L_Y679_Y679C]
-- reply 0.543

-- ask GET phosphorylation enrichment where system = FGFR1 (UniProt P11362) and item = YQEPVYSVAFS [TBL1X_Y509_H504Y]
-- reply 6.72
